Measured values drawn from patent US20230265151A1 for this set.

# EC50, cAMP per record follows
- system_under_test: T1, human GIP receptor (human, UniProt P48546 22-466)
- T1 sequence (looked up): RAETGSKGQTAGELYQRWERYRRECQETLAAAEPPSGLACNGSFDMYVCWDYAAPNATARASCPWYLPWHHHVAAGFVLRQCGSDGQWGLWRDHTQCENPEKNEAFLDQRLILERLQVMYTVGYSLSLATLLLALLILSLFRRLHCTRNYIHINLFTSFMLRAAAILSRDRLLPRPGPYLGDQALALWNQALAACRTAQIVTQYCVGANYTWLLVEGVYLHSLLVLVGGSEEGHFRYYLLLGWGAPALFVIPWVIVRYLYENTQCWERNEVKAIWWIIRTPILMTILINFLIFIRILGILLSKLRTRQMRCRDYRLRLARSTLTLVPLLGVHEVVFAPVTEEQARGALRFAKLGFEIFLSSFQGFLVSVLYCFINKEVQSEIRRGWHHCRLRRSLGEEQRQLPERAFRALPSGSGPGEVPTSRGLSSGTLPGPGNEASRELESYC
- method_notes: cell-based or functional assay
Please give a number only; it is taken to be in nM.

binder: YXEGTXTSDXSIXLDXIAQXEFIKXLIEGGPSSGAPPPSK (Aib2, αMeF(2F)6, 4Pal10, αMeL13, Orn16, Aib20, αMeY25, K24 and K40: K(AEEA2-(γ-Glu)-CO-(CH2)12-CO2H), C-terminal NH2) [Example 72]
unit_abbreviation: nM
EC50, cAMP: 0.016
--
binder: YXEGTXTSDKSIXLDXKAQXEFIXXLIEGGPSSGAPPPS (Aib2, αMeF(2F)6, αMeL13, Orn16, Aib20, D-Glu24, αMeY25, K10 and K17: K(AEEA2-(γ-Glu)-CO-(CH2)12-CO2H), C-terminal NH2) [Example 27]
unit_abbreviation: nM
EC50, cAMP: 0.116
--
binder: YXEGTXTSDXSIXLDXKAQXEFIXXLIEGGKSSGAPPPS (Aib2, αMeF(2F)6, αMeF(2F)10, αMeL13, Orn16, Aib20, D-Glu24, αMeY25, K17 and K31: K(AEEA2-(γ-Glu)-CO-(CH2)12-CO2H), C-terminal NH2) [Example 87]
unit_abbreviation: nM
EC50, cAMP: 0.029

[Q] Given YXEGTXTSDXSIXLDXKAQXEXIKXLIEGGPSSGAPPPS (Aib2, αMeF(2F)6, 4Pal10, αMeL13, Orn16, Aib20, αMeF22, αMeF25, K17 and K24: K(AEEA2-(γ-Glu)-CO-(CH2)12-CO2H), C-terminal NH2) [Example 84] , state its recorded EC50, cAMP.
[A] 0.0315

[Q] # EC50, cAMP lookup, item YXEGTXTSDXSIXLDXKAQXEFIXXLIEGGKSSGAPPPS (Aib2, αMeF(2F)6, 4Pal10, αMeL13, Orn16, Aib20, D-Glu24, αMeY25, K17 and K31: K((γ-Glu)-AEEA-CO-(CH2)12-CO2H), C-terminal NH2) [Example 42]
[A] 0.0103

[Q] Consider the binder shown here: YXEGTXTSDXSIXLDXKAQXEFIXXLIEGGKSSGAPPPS (Aib2, αMeF(2F)6, 3TA10, αMeL13, Orn16, Aib20, D-Glu24, αMeY25, K17 and K31: K(AEEA2-(γ-Glu)-CO-(CH2)12-CO2H), C-terminal NH2) [Example 146] What is its recorded EC50, cAMP?
[A] 0.0198

[Q] Data request, read-out EC50, cAMP, for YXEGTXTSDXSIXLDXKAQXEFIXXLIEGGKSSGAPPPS (Aib2, αMeF(2F)6, αMeL10, αMeL13, Orn16, Aib20, D-Glu24, αMeY25, K17 and K31: K(AEEA2-(γ-Glu)-CO-(CH2)12-CO2H), C-terminal NH2) [Example 51]
[A] 0.11

[Q] For the binder shown here, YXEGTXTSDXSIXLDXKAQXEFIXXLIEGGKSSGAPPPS (Aib2, αMeF(2F)6, 4Pal10, αMeL13, Orn16, Aib20, D-Glu24, αMeY25, K17 and K31: K((εK)-AEEA2-(γ-Glu)-CO-(CH2)12-CO2H), C-terminal NH2) [Example 37] , give the reported EC50, cAMP.
[A] 0.0211

[Q] Name the recorded EC50, cAMP for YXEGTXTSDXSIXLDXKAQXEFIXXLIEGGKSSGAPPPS (Aib2, αMeF(2F)6, 4Pal10, αMeL13, Orn16, Aib20, D-Glu24, αMeY25, K17 and K31: K(AEEA2-(γ-Glu)-(10-(4-carboxyphenoxy)decanoyl)), C-terminal NH2) [Example 2] .
[A] 0.0154

[Q] I'd like to know its EC50, cAMP. The binder in question is YXEGTXTSDXSIXLDXKAQXEFIKXLIEGGPSSGAPPPS (Aib2, αMeF(2F)6, 4Pal10, αMeL13, Orn16, Aib20, αMeY25, K17 and K24: K(AEEA2-(γ-Glu)-CO-(CH2)12-CO2H), C-terminal NH2) [Example 16]
[A] 0.0113

[Q] Look up EC50, cAMP for this binder: YXEGTXTSDXSIXLDXKAQXEXIXXLIEGGKSSGAPPPS (Aib2, αMeF(2F)6, 4Pal10, αMeL13, Orn16, Aib20, 3FPhe22, D-Glu24, αMeY25, K17 and K31: K(AEEA2-(γ-Glu)-CO-(CH2)12-CO2H), C-terminal NH2) [Example 64]
[A] 0.0158
